target: Monoamine oxidase A (MAO-A) (Homo sapiens, UniProt P21397); test: Inhibition of Monoamine Oxidase MAO-A at compound concentration of 10.0 uM in the Eurofins-Panlabs enzyme assay (Eurofins_assay_140010); set-up: substrate with concentration 50 uM Kynuramine, incubation time 60 min, incubation temperature 37 C; conditions: recombinant human MAO-A expressed in insect Hi5 cells, probe Kynuramine (50 uM), compound concentration 10 uM
Sequence (P21397 whole entry): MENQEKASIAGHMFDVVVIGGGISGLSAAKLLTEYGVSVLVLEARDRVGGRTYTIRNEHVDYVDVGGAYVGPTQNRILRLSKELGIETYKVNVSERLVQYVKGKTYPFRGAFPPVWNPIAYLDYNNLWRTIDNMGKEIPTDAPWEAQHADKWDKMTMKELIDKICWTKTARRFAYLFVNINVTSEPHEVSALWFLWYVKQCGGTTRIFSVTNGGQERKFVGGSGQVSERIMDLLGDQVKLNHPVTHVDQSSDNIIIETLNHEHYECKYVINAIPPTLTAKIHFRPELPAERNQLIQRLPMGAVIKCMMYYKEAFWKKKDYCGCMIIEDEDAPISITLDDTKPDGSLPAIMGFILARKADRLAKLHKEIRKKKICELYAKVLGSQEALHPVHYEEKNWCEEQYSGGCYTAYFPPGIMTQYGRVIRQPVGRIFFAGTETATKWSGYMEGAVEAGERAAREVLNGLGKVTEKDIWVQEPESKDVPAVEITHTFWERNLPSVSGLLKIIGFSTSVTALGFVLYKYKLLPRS

# STRUCTURE, inhibition at 60 min, 10 µM
data = [
    ("CC[C@@H](Nc1c(C#N)c(-c2ccc(-c3cccc(C)c3F)cc2)nc2cnccc12)C(=O)O", "7% (not active)"),
]

----------
molecular target: 5-hydroxytryptamine receptor 7 (Homo sapiens, UniProt P34969)
Sequence (P34969 whole entry): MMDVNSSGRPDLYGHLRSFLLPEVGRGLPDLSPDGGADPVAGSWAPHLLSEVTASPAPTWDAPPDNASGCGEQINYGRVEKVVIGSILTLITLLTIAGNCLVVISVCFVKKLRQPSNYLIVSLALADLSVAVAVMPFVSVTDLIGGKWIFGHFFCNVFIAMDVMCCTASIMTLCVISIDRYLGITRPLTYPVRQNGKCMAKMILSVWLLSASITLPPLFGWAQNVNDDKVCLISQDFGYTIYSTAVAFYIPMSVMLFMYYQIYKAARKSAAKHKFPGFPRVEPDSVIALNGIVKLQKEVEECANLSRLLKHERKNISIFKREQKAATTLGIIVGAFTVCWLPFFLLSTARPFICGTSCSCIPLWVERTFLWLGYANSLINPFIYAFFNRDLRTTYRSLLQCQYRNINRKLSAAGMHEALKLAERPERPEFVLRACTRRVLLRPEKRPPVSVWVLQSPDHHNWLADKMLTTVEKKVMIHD

# STRUCTURE, Ki
rows = [
    ("CC[C@@H](Nc1c(C#N)c(-c2ccc(-c3cccc(C)c3F)cc2)nc2cnccc12)C(=O)O", "> 10 µM"),
]

----------
target: Monoamine oxidase B (MAO-B) (Homo sapiens, UniProt P27338); assay: Inhibition of Monoamine Oxidase MAO-B at compound concentration of 10.0 uM in the Eurofins-Panlabs enzyme assay (Eurofins_assay_140120); parameters: substrate with concentration 50 uM Kynuramine, incubation time 60 min, incubation temperature 37 C; conditions: recombinant human MAO-B expressed in insect Hi5 cells, probe Kynuramine (50 uM), compound concentration 10 uM
Sequence (P27338 whole entry): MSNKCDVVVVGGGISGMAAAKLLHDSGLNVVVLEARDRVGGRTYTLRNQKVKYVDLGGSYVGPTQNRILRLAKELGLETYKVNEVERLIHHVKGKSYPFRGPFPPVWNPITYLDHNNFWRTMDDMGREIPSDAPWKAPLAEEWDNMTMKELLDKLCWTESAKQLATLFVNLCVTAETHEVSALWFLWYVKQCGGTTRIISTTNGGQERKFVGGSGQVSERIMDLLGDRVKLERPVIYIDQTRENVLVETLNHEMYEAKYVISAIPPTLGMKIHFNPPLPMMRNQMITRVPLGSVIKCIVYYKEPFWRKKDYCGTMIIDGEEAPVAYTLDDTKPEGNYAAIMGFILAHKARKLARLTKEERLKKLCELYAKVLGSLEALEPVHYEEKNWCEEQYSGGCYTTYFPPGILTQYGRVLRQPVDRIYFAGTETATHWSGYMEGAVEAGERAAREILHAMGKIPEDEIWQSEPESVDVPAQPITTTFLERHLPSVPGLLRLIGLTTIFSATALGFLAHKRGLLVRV
Active and inactive are the calls of the source. The rule behind the calls is not given here.
READOUT_KIND: inhibition at 60 min, 10 µM

# STRUCTURE, RESULT
data = [
    ("CC[C@@H](Nc1c(C#N)c(-c2ccc(-c3cccc(C)c3F)cc2)nc2cnccc12)C(=O)O", "81% (active)"),
]

----------
target: 5-hydroxytryptamine receptor 2B (Homo sapiens, UniProt P41595)
Sequence (P41595 whole entry): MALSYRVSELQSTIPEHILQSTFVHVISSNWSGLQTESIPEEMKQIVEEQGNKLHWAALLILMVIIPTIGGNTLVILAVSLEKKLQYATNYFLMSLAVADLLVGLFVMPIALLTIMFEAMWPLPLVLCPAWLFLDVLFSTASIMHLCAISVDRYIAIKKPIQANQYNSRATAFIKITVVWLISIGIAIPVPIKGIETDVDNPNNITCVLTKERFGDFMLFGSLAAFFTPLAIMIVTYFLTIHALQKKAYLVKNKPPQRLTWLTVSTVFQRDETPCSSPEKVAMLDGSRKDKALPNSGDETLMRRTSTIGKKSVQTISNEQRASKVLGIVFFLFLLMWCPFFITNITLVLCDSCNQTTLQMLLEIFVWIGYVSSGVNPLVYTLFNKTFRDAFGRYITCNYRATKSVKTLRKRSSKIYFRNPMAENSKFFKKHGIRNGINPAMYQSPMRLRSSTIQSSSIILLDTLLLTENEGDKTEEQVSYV
pKi: −log10 of the molar value.

# COMPOUND, pKi
rows = [
    ("CC[C@@H](Nc1c(C#N)c(-c2ccc(-c3cccc(C)c3F)cc2)nc2cnccc12)C(=O)O [BAY-091]", 5.82),
]

----------
target: 5-hydroxytryptamine receptor 6 (Homo sapiens, UniProt P50406)
Sequence (P50406 whole entry): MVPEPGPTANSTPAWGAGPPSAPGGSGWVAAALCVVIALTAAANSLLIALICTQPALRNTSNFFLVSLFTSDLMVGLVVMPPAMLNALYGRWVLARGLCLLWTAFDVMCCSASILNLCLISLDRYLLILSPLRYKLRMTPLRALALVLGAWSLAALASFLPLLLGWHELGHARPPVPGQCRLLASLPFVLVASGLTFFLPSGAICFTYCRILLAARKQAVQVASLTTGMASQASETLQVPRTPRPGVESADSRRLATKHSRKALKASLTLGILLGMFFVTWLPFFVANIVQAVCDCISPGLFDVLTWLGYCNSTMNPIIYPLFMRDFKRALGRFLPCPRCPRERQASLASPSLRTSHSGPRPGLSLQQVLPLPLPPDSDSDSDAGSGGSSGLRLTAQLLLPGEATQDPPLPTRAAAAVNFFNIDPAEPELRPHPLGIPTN
READOUT_KIND: Ki

# STRUCTURE, RESULT
measured = [
    ("CC[C@H](Nc1c(C#N)c(-c2ccc(-c3cccc(C)c3F)cc2)nc2cnccc12)C(=O)O", "> 10 µM"),
]

----------
target: D(1A) dopamine receptor (Homo sapiens); test: GPCRScan assay: inhibition of D1
Sequence (P21728 whole entry): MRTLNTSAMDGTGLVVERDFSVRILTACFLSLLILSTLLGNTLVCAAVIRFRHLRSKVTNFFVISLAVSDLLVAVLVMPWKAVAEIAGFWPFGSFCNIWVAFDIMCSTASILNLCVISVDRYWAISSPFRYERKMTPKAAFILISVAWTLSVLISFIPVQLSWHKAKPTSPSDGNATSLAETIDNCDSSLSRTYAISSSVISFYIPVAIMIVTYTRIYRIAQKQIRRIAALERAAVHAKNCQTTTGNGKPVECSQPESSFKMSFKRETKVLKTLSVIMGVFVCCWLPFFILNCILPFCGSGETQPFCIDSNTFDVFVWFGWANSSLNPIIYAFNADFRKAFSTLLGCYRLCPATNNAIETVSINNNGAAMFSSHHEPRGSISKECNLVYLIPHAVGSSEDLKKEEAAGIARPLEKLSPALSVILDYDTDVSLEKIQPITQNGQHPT
pKi: −log10 of the molar value.

# COMPOUND, pKi
rows = [
    ("CC[C@H](Nc1c(C#N)c(-c2ccc(-c3cccc(C)c3F)cc2)nc2cnccc12)C(=O)O [BAY-0361]", 5.02),
]
